For each of the molecules below, state its IC50.
Molecular target: gamma-secretase (Homo sapiens, UniProt P49768)
Construct: partially purified extract of IMR-32 cell membranes as the gamma-secretase enzyme preparation; endogenous in cells; host or cells: IMR-32 cell membranes (partially purified extract)
Experiment: Gamma-secretase APP enzyme assay
Assay type: biochemical
Conditions: cleavage of MBP-C125 Swe substrate at the Aβ40 site; partially purified extract of IMR-32 cell membranes; ELISA

Q: Identify IC50 associated with the molecule CC1c2c[nH]nc2-c2ccccc2N1S(=O)(=O)c1ccc(Cl)cc1 (racemic)
Result: 0.1 to 100 nM

Q: Identify IC50 associated with the molecule CC(C)C1c2c[nH]nc2-c2cc(F)c(F)cc2N1S(=O)(=O)c1ccc(C(F)(F)F)cc1 (stereo not shown)
Result: 0.1 to 100 nM

Q: Identify IC50 associated with the molecule CC1c2cn[nH]c2C2CCCCC2N1S(=O)(=O)c1ccc(Cl)cc1 (racemic)
Result: 0.1 to 100 nM

Q: Identify IC50 associated with the molecule O=S(=O)(c1ccc(Cl)cc1)N1Cc2c[nH]nc2-c2cc(Cl)ccc21
Result: 501 to 1000 nM

Q: Identify IC50 associated with the molecule O=S(=O)(c1cccs1)N1c2cc(F)c(F)cc2-c2n[nH]cc2C1C1CC1 (stereo not shown)
Result: 0.1 to 100 nM

Q: Identify IC50 associated with the molecule CC1c2c[nH]nc2-c2cc(F)c(F)cc2N1S(=O)(=O)c1cccs1 (stereo not shown)
Result: 0.1 to 100 nM

Q: Identify IC50 associated with the molecule CC1c2cn[nH]c2-c2ccccc2N1S(=O)(=O)c1cccnc1 (stereo not shown)
Result: 101 to 500 nM

Q: Identify IC50 associated with the molecule CC1c2c[nH]nc2-c2cc(F)ccc2N1S(=O)(=O)c1ccc(Cl)cc1 (racemic)
Result: 0.1 to 100 nM

Q: Identify IC50 associated with the molecule O=S(=O)(c1ccc(Cl)cc1)N1c2ccccc2-c2n[nH]cc2C1C(F)(F)F (stereo not shown)
Result: 0.1 to 100 nM

Q: Identify IC50 associated with the molecule O=S(=O)(c1ccc(F)cc1)N1c2ccccc2-c2n[nH]cc2C1C1CC1 (stereo not shown)
Result: 0.1 to 100 nM

The origin of these recorded values is patent US20080021056A1.
